Test system: Pseudomonas aeruginosa
test-description: Inhibition of Pseudomonas aeruginosa PqsD assessed as HHQ formation at 50 uM incubated 30 mins prior to substrate addition
measurement-name: inhibition (%)

Below, 2 molecules whose answers are already recorded.
mol-smiles	u	numeric-value
O=C(Nc1ccccc1C(=O)O)c1cccc(S(=O)(=O)N2CCCC2)c1	%	47
CCN(CC)S(=O)(=O)c1ccc(C(=O)Nc2ccccc2C(=O)O)cc1	%	44

P: CCN(CC)S(=O)(=O)c1cccc(C(=O)Nc2cccc(OC)c2C(=O)O)c1
Q: CCN(CC)S(=O)(=O)c1cccc(C(=O)Nc2ccccc2C(N)=O)c1
R: CCN(CC)S(=O)(=O)c1cccc(C(=O)Nc2ccccc2C(=O)O)c1
Highest inhibition first, then in falling order down to the smallest. When ranking, write the labels in the order the request describes.
R, P, Q
(R: 69%, P: 44%, Q: 21%)

---

test-description: Binding affinity to Pseudomonas aeruginosa wild-type PqsD by isothermal titration calorimetry
measurement-name: pKd
Note: pKd values are expressed as the negative base-10 logarithm of concentration in M.

Quick one: pKd of CCN(CC)S(=O)(=O)c1cccc(C(=O)Nc2ccc(-c3ccccc3)cc2C(=O)O)c1 ?
5.28
